Test system: V. cholerae SAD30
Construct: SAD30
Set-up: species or system S. aureus MSSA476 (TSB) or V. cholerae SAD30 (LB); 384-well bacterial growth screen at 25 uM, OD600 relative to DMSO control
Details: relative growth, OD600, LB; 25 µM; inhibitor
The campaign covered roughly 3,200 compounds. About 110 (3.4%) showed an effect of 50% or more. Only a selection was taken, and strong results are over-represented in it overall.
The entries below come with measured % of control remaining values attached.
Report the value in % with no unit label.

Example entries and their recorded answers appear below.
molecule: C=CC(=O)Nc1ccccc1Sc1nncs1
target-under-test: V. cholerae SAD30
% of control remaining, %: 100.149

molecule: O=C1C=CC(=O)N1c1ccc(Oc2ccccc2)cc1
target-under-test: V. cholerae SAD30
% of control remaining, %: 26.1835

molecule: CCn1ncc(C(=O)CCl)n1
target-under-test: V. cholerae SAD30
% of control remaining, %: 0

molecule: CC(CO)(Cc1ccc(F)cc1)NC(=O)CCl (centres unmarked)
target-under-test: V. cholerae SAD30
% of control remaining, %: 78.5065

molecule: C=CC(=O)N1Cc2ccccc2C[C@@H]1C(=O)NC1CC1
target-under-test: V. cholerae SAD30
% of control remaining, %: 95.7541

Query string: Record request: % of control remaining value, item NC(=O)Nc1ccc(C(=O)CCl)cc1 [10-J07, [4-(2-chloroacetyl)phenyl]urea]
Result string: 65.4588

Query string: Record request: % of control remaining value, item CC(C)CC(=O)Nc1ccc(C(=O)CCl)cc1
Result string: 76.8362

Query string: Record request: % of control remaining value, item CN(Cc1ccccc1)S(=O)(=O)c1ccc(NC(=O)CCl)cc1
Result string: 97.1735

Query string: Record request: % of control remaining value, item O=C(CCl)Cc1c(F)cccc1Cl
Result string: 36.1582

Provenance of the data: paper PMC11995724
